- System: OVCAR4
- ASSAY_PROTOCOL: Euclidean distance of Cell Painting phenotypic profile (signed KS, 77 features) to DMSO centroid (dimensionless distance); 5 or 10 uM (library dependent); higher = stronger phenotypic change vs DMSO (phenoactivity)
- CONDITION_CONTEXT: 48 h
Counter-ions that a name gives are not always drawn.
This listing pairs compounds with measured Euclidean distance.
Please reply with the number alone, leaving off any unit.

Sample answers from the record:
Prompt: Query: Euclidean distance; subject: `CCCSc1nc(N[C@@H]2C[C@H]2c2ccc(F)c(F)c2)c2nnn([C@@H]3C[C@H](OCCO)[C@@H](O)[C@H]3O)c2n1`
Completion: 1.37

Prompt: Could you share which Euclidean distance value was measured for `Nc1cc(C(F)(F)F)c(-c2cc(N3CCOCC3)nc(N3CCOCC3)n2)cn1` ?
Completion: 3.29

Prompt: Quick one: Euclidean distance for `CC1=C(/C=C/C(C)=C/C=C/C(C)=C/C(=O)O)C(C)(C)CCC1` ?
Completion: 1.18

Prompt: Endpoint output: Euclidean distance of `O=S1(=O)CCN(CN2CCS(=O)(=O)NC2)CN1` . Value?
Completion: 1.46

Prompt: Field request: Euclidean distance | item: `C[C@@H]1O[C@@H](OC[C@H]2O[C@@H](Oc3c(-c4ccc(O)c(O)c4)oc4cc(O)cc(O)c4c3=O)[C@H](O)[C@@H](O)[C@@H]2O)[C@H](O)[C@H](O)[C@H]1O`
Completion: 0.909

Prompt: Look at this compound and give its reported Euclidean distance. `CC(C)OC(=O)CCC/C=C\C[C@@H]1[C@@H](/C=C/[C@@H](O)COc2cccc(C(F)(F)F)c2)[C@H](O)C[C@@H]1O`
Completion: 1.25

Prompt: Which Euclidean distance value belongs to `Nc1ncc2ncn(CC3(OCP(=O)(O)O)CC3)c2n1` ?
Completion: 0.915

Prompt: What value of Euclidean distance has been reported for the following compound? CC(CCc1ccc(O)cc1)NCC(O)c1ccc(O)cc1 (stereo not given) [Ractopamine HCl]
Completion: 1.07

***
Prompt: Which measured Euclidean distance value corresponds to CC(=O)O[C@]1(C(C)=O)CC[C@H]2[C@@H]3C=C(Cl)C4=CC(=O)[C@@H]5C[C@@H]5[C@]4(C)[C@H]3CC[C@@]21C [Cyproterone Acetate] ?
Completion: 0.974

Prompt: Recorded Euclidean distance of `C[C@@H](Oc1ccc2[nH]nc(/C=C/c3cnn(CCO)c3)c2c1)c1c(Cl)cncc1Cl` , please.
Completion: 3.82

Prompt: # query: Euclidean distance of entry `CC(=O)Oc1cc(C(F)(F)F)ccc1C(=O)O`
Completion: 1.16

Prompt: Sample `CCn1c(-c2nonc2N)nc2c(C#CC(C)(C)O)ncc(OC[C@H]3CCCNC3)c21` — what was its Euclidean distance?
Completion: 2.14

Entry source: the supplement of paper PMC10127200
